- target-entity: S. pneumoniae ComD1 receptor (Streptococcus pneumoniae serotype 2)
- Sequence (A0A0H2ZM50 1-441): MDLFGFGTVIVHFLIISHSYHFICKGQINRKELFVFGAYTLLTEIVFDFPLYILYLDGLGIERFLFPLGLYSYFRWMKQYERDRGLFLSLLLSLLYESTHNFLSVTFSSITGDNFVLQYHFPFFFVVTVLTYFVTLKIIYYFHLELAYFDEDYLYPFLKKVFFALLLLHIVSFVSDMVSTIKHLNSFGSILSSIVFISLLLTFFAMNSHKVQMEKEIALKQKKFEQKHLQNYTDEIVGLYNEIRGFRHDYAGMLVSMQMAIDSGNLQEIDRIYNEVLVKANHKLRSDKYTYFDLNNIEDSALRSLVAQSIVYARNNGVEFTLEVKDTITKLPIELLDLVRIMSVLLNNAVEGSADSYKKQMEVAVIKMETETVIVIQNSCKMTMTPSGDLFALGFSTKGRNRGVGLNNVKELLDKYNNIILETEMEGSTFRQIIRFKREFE
- experiment-description: β-galactosidase reporter assay, agonism
- Format: cell-based
Where no end group is shown, it is not given here.
outcome-measure: pEC50
One number for each entry, as −log10 of the molar value.

>>> df
                             chain_sequence  outcome_measure  data_value
0  EIRQTHIFFFNFFKRR [S. mitis-CSP-2-N7II8F]            pEC50        7.06
1  EIRLTHNIFFNLFKRR [S. mitis-CSP-2-Q4LF12L]            pEC50        7.16
2     EIRQTHFIFFNFFKRR [S. mitis-CSP-2-N7F]            pEC50        6.85
3  EMRQTHFIFFNFFKRR [S. mitis-CSP-2-I2MN7F]            pEC50        6.88
4  EIRQTHFIFFNLFKRR [S. mitis-CSP-2-N7FF12L]            pEC50        6.81

Now let's try a different one.
Inquiry: Given the entry EMRQTHNFFFNFFKRR [S. mitis-CSP-2-I2MI8F] , report its measured pEC50.
Reply text: 6.82

---

Provide the recorded pEC50 for the entries that follow.
- target-entity: S. pneumoniae ComD2 receptor (Streptococcus pneumoniae serotype 4, UniProt A0A0H2US84)
- Sequence (A0A0H2US84 1-441): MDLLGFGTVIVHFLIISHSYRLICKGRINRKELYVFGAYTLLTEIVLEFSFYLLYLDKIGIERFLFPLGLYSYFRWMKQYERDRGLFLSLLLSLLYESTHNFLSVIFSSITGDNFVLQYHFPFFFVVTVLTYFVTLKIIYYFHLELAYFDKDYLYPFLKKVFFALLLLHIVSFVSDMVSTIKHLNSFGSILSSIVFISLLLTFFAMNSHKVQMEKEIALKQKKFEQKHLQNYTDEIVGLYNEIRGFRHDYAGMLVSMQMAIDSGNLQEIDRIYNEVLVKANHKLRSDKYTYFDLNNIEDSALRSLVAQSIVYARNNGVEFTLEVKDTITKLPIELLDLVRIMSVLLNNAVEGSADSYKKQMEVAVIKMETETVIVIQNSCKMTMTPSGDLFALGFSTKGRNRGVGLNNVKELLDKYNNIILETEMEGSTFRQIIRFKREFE
- experiment-description: β-galactosidase reporter assay, agonism
- Assay type: cell-based
Where no end group is shown, it is not given here.
Give bare numbers, as −log10 of the molar value.

Some sequences with recorded pEC50:
>>> df
                             chain_sequence  data_value
0  EMRQTHIIFFNFFKRR [S. mitis-CSP-2-I2MN7I]        7.26
1    EIRQTHNIFFNLFKRR [S. mitis-CSP-2-F12L]        6.09
2  EMRLTHFIFFNFFKRR [S. mitis-CSP-2-I2MQ4LN7F]        7.12
3  EIRQTHFFFFNLFKRR [S. mitis-CSP-2-N7FI8FF12L]        7.17
4  EMRQTHFIFFNFFKRR [S. mitis-CSP-2-I2MN7F]        6.91

Look up pEC50 for the entries below, preserving their order.
1. EIRQTHFIFFNFFKRR [S. mitis-CSP-2-N7F]
2. EIRQTHFIFFNLFKRR [S. mitis-CSP-2-N7FF12L]
3. EIRQTHNIFFFFFKRR [S. mitis-CSP-2-N11F]
4. EMRQTHNFFFNFFKRR [S. mitis-CSP-2-I2MI8F]
5. EMRLTHIIFFNFFKRR [S. mitis-CSP-2-I2MQ4LN7I]
6. EIRLTHIIFFNFFKRR [S. mitis-CSP-2-Q4LN7I]
7. EIRQTHNFFFNFFKRR [S. mitis-CSP-2-I8F]

Reply text:
1: 6.33; 2: 6.27; 3: 6.66; 4: 7.08; 5: 6.73; 6: 6.50; 7: 6.68

---

- target-entity: S. pneumoniae ComD1 receptor (Streptococcus pneumoniae serotype 2)
- experiment-description: β-galactosidase reporter assay, agonism
- Format: cell-based
Where no end group is shown, it is not given here.
outcome-measure: pEC50
Numbers only, as −log10 of the molar value.

Some sequences with recorded pEC50:
In [3]: df
Out[3]:
                             chain_sequence  outcome_measure  data_value
0  EMRQTHIIFFNFFKRR [S. mitis-CSP-2-I2MN7I]            pEC50        6.35
1  EIRQTHIFFFNLFKRR [S. mitis-CSP-2-N7II8FF12L]            pEC50        6.05
2  EMRLTHNIFFNLFKRR [S. mitis-CSP-2-I2MQ4LF12L]            pEC50        7.77

Look up pEC50 for the entries below, preserving their order.
1. EIRQTHNIFFFFFKRR [S. mitis-CSP-2-N11F]
2. EIRQTHNFFFNFFKRR [S. mitis-CSP-2-I8F]
3. EMRLTHFIFFNFFKRR [S. mitis-CSP-2-I2MQ4LN7F]
4. EIRLTHIFFFNFFKRR [S. mitis-CSP-2-Q4LN7II8F]

Reply text:
1: 8.33; 2: 6.89; 3: 6.86; 4: 6.62

Look up pEC50 for the entries below, preserving their order.
1. EMRQTHIIFFFFFKRR [S. mitis-CSP-2-I2MN7IN11F]
2. EIRQTHNIFFNLFKRR [S. mitis-CSP-2-F12L]
3. EIRQTHNIFFNFFKRR [S. mitis-CSP-2]
4. EMRLTHNIFFNFFKRR [S. mitis-CSP-2-I2MQ4L]
5. EIRQTHIIFFNLFKRR [S. mitis-CSP-2-N7IF12L]
6. EMRQTHFIFFNLFKRR [S. mitis-CSP-2-I2MN7FF12L]

Reply text:
1: 6.25; 2: 7.27; 3: 6.18; 4: 7.30; 5: 6.21; 6: 7.14

Look up pEC50 for the entries below, preserving their order.
1. EIRQTHNFFFFFFKRR [S. mitis-CSP-2-I8FN11F]
2. EIRLTHIIFFNFFKRR [S. mitis-CSP-2-Q4LN7I]
3. EIRLTHFIFFNFFKRR [S. mitis-CSP-2-Q4LN7F]
4. EIRQTHNFFFNLFKRR [S. mitis-CSP-2-I8FF12L]
5. EMRLTHNIFFFFFKRR [S. mitis-CSP-2-I2MQ4LN11F]
6. EIRLTHNFFFNFFKRR [S. mitis-CSP-2-Q4LI8F]

Reply text:
[7.91, 6.46, 6.43, 6.80, 7.83, 6.55]

---

- target-entity: S. pneumoniae ComD2 receptor (Streptococcus pneumoniae serotype 4, UniProt A0A0H2US84)
- experiment-description: β-galactosidase reporter assay, agonism
- Assay type: cell-based
Where no end group is shown, it is not given here.
Provide the recorded pEC50 for the entries that follow.
One number for each entry, as −log10 of the molar value.

Some sequences with recorded pEC50:
                             chain_sequence  outcome_measure  data_value
0  EMRQTHNIFFFFFKRR [S. mitis-CSP-2-I2MN11F]            pEC50        6.12
1  EIRLTHNIFFFFFKRR [S. mitis-CSP-2-Q4LN11F]            pEC50        6.36
2  EMRLTHNIFFNLFKRR [S. mitis-CSP-2-I2MQ4LF12L]            pEC50        6.86

Look up pEC50 for the entries below, preserving their order.
1. EIRQTHNFFFFFFKRR [S. mitis-CSP-2-I8FN11F]
2. EMRQTHNIFFNLFKRR [S. mitis-CSP-2-I2MF12L]
3. EIRQTHIIFFNFFKRR [S. mitis-CSP-2-N7I]

Reply text:
1: 6.55; 2: 6.84; 3: 6.68
